Value source: patent US20190055314A1

# Assay system: T1, CD137-hisFc fusion protein (Sino Biological Cat 10041-H03H) (human, UniProt Q07011 24-186)
# T1 construct: Bought; also called recombinant human CD137 (fused with human Fc and His tag); not shown: His tag and human Fc
# Test method notes: BLI Octet, Fab
Outcome measure: kon (M⁻¹ s⁻¹)
One number for each entry, in M⁻¹ s⁻¹.

Take a look at these entries with their results.
INSERT INTO measurements (binder, result_units, measurement) VALUES
  ('Fab 4137 (Fab, V domains shown, Fab from E. coli; also called VH7/VL7) VH: EVQLVESGGGLVQPGGSLRLSCAASGYSITSGYYWGWIRQAPGKGLEWVSGISGSGSSTYYADSVKGRFTISRDNSKNTLYLQLNSLRAEDTAVYYCARGTYSFDVWGQGTLVTVSS VL: DIQLTQSPSSLSASVGDRVTITCRASQGISSDLAWYQQKPGKAPKLLIYAASTLQSGVPSRFSGSGSGTDFTLTISSLQPEDFATYYCQQYYSYITFGQGTKVEIKR', 'M⁻¹ s⁻¹', 85600),
  ('Fab 4079 (Fab, V domains shown, Fab from E. coli; also called VH5/VL5) VH: EVQLVESGGGLVQPGGSLRLSCAASGFTFTGYWIHWVRQAPGKGLEWVGRIRSKTDGYTTEYAAPVKGRFTISRDNSKNTLYLQLNSLRAEDTAVYYCARLGGHWYFDVWGQGTLVTVSS VL: DIQLTQSPSSLSASVGDRVTITCRASQSIGRYLNWYQQKPGKAPKLLIYDASNLETGVPSRFSGSGSGTDFTLTISSLQPEDFATYYCEQPLELPRTFGQGTKVEIKR', 'M⁻¹ s⁻¹', 69300);

Note: attention shifts to another entry.
Q: Can you share its kon? I mean this binder: Fab 7100 (Fab, V domains shown, Fab from E. coli; also called VH50/VL50) VH: EVQLVESGGGLVQPGGSLRLSCAASGFSLSTSGVGVGWIRQAPGKGLEWVSYISGDGGSTYYADSVKGRFTISRDNSKNTLYLQLNSLRAEDTAVYYCAREGSDTVLGDWFAYWGQGTLVTVSS VL: DIQLTQSPSSLSASVGDRVTITCRASQGISSYLAWYQQKPGKAPKLLIYDASNLETGVPSRFSGSGSGTDFTLTISSLQPEDFATYYCQQYYSTPLTFGQGTKVEIKR
Ans: 462000
